Numbers sourced from the FLAb antibody collection.

- experimental_details: patients with anti-drug antibodies; higher = more immunogenic
readout_type: patients with anti-drug antibodies (%)
One number for each entry, in %.

Reference set, count: 2
unnamed (protein) chain 1: QVQLVESGGGVVQPGRSLRLSCTASGFTFKNYAMHWVRQAPAKGLEWVATISYDGRNIQYADSVKGRFTFSRDNSQDTLYLQLNSLRPEDTAVYYCARPVRSRWLQLGLEDAFHIWGQGTMVTVSS chain 2: AIRMTQSPSSFSASTGDRVTITCRASQDIRNYVAWYQQKSGKAPKFLIYAASTLQSGVPSRFSGSGSGTDFTLTINSLQSEDFATYYCQQYYNSPPTFGQGTRVEIT :: 0
unnamed (protein) chain 1: EVQLQQSGPDLVKPGASVKISCKASGYSFTGYYMHWVKQSPGKGLEWIGRINPNNGVTLYNQKFKDKATLTVDKSSTTAYMELRSLTSEDSAVYYCARSTMITNYVMDYWGQGTSVTVSS chain 2: SIVMTQTPTSLLVSAGDRVTITCKASQSVSNDVAWYQQKPGQSPKLLISYTSSRYAGVPDRFSGSGYGTDFTLTISSVQAEDAAVYFCQQDYNSPPTFGGGTKLEIK :: 72.5

Recorded patients with anti-drug antibodies for unnamed (protein) chain 1: EVQLVESGGGLVKPGGSLRLSCAASGFTFSNYAMSWVRQAPGKGLEWVATISSGGSHTYYLDSVKGRFTISRDNSKNTLYLQMNSLRAEDTALYYCARLFTGYAMDYWGQGTLVTVSS chain 2: QIVLTQSPATLSLSPGERATMSCTASSSVSSSYLHWYQQKPGKAPKLWIYSTSNLASGVPSRFSGSGSGTDYTLTISSLQPEDFATYYCHQYYRLPPITFGQGTKLEIK , please? 8
